Origin of the recorded values: patent US20200148778A1

Target: human CD40 on HEK293 cells stably transfected with the human CD40 gene (HEK-Blue CD40L cells) (human, UniProt P25942 21-277)
Sequence (P25942 21-277): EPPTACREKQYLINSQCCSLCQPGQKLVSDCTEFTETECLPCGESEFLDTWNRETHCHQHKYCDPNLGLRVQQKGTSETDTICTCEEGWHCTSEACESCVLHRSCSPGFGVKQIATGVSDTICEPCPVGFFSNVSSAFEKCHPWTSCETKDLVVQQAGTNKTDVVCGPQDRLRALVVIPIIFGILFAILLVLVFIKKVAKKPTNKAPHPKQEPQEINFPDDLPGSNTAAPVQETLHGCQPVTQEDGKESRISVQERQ
Assay: cell-based or functional assay
Parameter: HEK293-CD40L cells activity assay EC50 (µg/mL)
# unit: µg/mL | format: bare number

Tell me HEK293-CD40L cells activity assay EC50 reported for mouse hybridoma anti-human CD40 antibody 1D9 (antibody, V domains shown, Murine hybridoma antibody) VH: QVRLQQSGAELVRPGTSMRVSCKASGYAFTNYLINWVKQRPGQGLEWIGILNPGSGGTNYNENFKDKATLTADKSSNTAYMQLSSLTSEDSAVYFCIRGSPGFAYWGQGTLVTVSA VL: DIQMTQTTSSLSASLGDRVTISCRASQDINIYLNWYQQKPDGTVKLLIYSTSGLHSGVPSRFNGSGSGTDYSLTISNLEQEDIATYFCQQGYTLPYTFGGGTKLEIK
0.0145

Tell me HEK293-CD40L cells activity assay EC50 reported for mouse hybridoma anti-human CD40 antibody 2H6 (antibody, V domains shown, Murine hybridoma antibody; also called mouse mAb 2H6) VH: QVQLQQSGAELVRPGTSVKVSCKASGYAFSDYLIEWAKQRPGQGLEWIGVINPGSGGSNYNEKIKDRATLTADKSSSTAYMQLSSLTSEDSAVYFCARGGGGFTYWGQGTLVTVSA VL: EIQLTQTTSSLSASLGDRVTISCRASQDISNYLNWYQQKPDGTIKLLLNFASRLHSGVPSRFSGSGSGTDFFLTISNLEQDDIATYFCQQGSTLPWTFGGGTKLEIK
0.0151
